# Tested on: MCF7
# method: cells
# measurement_setup: Homo sapiens
# Description: Growth response in cultures of MCF-7 (human breast cancer cell line) cells
We label by threshold. Values of EC50 strictly beneath 0.9 nM are MET. Values of 0.9 nM and up are NOT MET.

{"compound": "C[C@]12CC[C@H]3C(=CCc4cc(O)ccc43)[C@@H]1CC[C@@H]2O", "answer_label": "MET"}
{"compound": "C[C@]12CC[C@@H]3c4ccc(O)c(N)c4CCC3[C@@H]1CC[C@@H]2O (single isomer, unassigned)", "answer_label": "MET"}

// query I'd appreciate it if you could check whether C[C@]12C[C@H](O)[C@@H]3c4ccc(O)cc4CCC3[C@@H]1CC[C@@H]2O (single isomer, unassigned) has EC50 smaller than 0.9 nM.
// result MET

// query I'd appreciate it if you could check whether C[C@]12CC[C@@H]3c4cccc(I)c4CCC3[C@@H]1CC[C@@H]2O (single isomer, unassigned) has EC50 smaller than 0.9 nM.
// result NOT MET

// query I'd appreciate it if you could check whether C[C@]12CC[C@@H]3c4ccc([N+](=O)[O-])cc4CCC3[C@@H]1CC[C@@H]2O (single isomer, unassigned) has EC50 smaller than 0.9 nM.
// result NOT MET

// query I'd appreciate it if you could check whether C[C@]12CC[C@@H]3c4ccc(O)cc4CC(=O)C3[C@@H]1CC[C@@H]2O (single isomer, unassigned) has EC50 smaller than 0.9 nM.
// result MET

// query I'd appreciate it if you could check whether C[C@]12CC[C@@H]3c4ccc(O)cc4C=C[C@@H]3[C@@H]1CC[C@@H]2O has EC50 smaller than 0.9 nM.
// result MET

// query I'd appreciate it if you could check whether C[C@]12CC[C@@H]3c4c(N)cccc4CCC3[C@@H]1CC[C@@H]2O (single isomer, unassigned) has EC50 smaller than 0.9 nM.
// result NOT MET

// query I'd appreciate it if you could check whether C[C@@]12CCC[C@H]1C1CCc3cc(O)ccc3[C@H]1CC2 (single isomer, unassigned) has EC50 smaller than 0.9 nM.
// result MET

// query I'd appreciate it if you could check whether C[C@]12CC[C@@H]3c4cccc(N)c4CCC3[C@@H]1CC[C@@H]2O (single isomer, unassigned) has EC50 smaller than 0.9 nM.
// result NOT MET

// query I'd appreciate it if you could check whether C[C@]12CC[C@@H]3c4ccc(N)cc4CCC3[C@@H]1CC[C@@H]2O (single isomer, unassigned) has EC50 smaller than 0.9 nM.
// result NOT MET

// query I'd appreciate it if you could check whether C[C@]12CC[C@@H]3c4ccc(O)cc4[C@H](O)CC3[C@@H]1CC[C@@H]2O (single isomer, unassigned) has EC50 smaller than 0.9 nM.
// result MET

// query I'd appreciate it if you could check whether C[C@]12CC[C@@H]3c4cc([N+](=O)[O-])c(O)cc4CCC3[C@@H]1CC[C@@H]2O (single isomer, unassigned) has EC50 smaller than 0.9 nM.
// result NOT MET

// query I'd appreciate it if you could check whether C[C@]12CC[C@@H]3c4ccc(O)cc4[C@@H](O)CC3[C@@H]1CC[C@@H]2O (single isomer, unassigned) has EC50 smaller than 0.9 nM.
// result MET

----------
# Lookup of reported EC50 keyed by entry
# System: MCF7
# method: cells
# measurement_setup: Homo sapiens
// note: answer is a bare numeric in nM

These solved cases illustrate the format of a correct answer.
{"compound": "C[C@]12CC[C@@H]3c4c(O)cccc4CCC3[C@@H]1CC[C@@H]2O (single isomer, unassigned)", "measured_target": "MCF7", "EC50 (nM)": 1.59}
{"compound": "C[C@]12CC[C@@H]3c4cc([N+](=O)[O-])ccc4CCC3[C@@H]1CC[C@@H]2O (single isomer, unassigned)", "measured_target": "MCF7", "EC50 (nM)": 29.3}
{"compound": "C[C@]12CC[C@H]3[C@H](CC=C4C[C@@H](O)CC[C@@]43C)[C@@H]1CC[C@@H]2O", "measured_target": "MCF7", "EC50 (nM)": 1.41}
{"compound": "C[C@]12CC[C@@H]3c4ccc(O)cc4CCC3[C@@H]1C[C@@H](O)C2 (single isomer, unassigned)", "measured_target": "MCF7", "EC50 (nM)": 0.237}
{"compound": "C[C@]12CC[C@@H]3c4cccc([N+](=O)[O-])c4CCC3[C@@H]1CC[C@@H]2O (single isomer, unassigned)", "measured_target": "MCF7", "EC50 (nM)": 34.2}
{"compound": "C[C@]12CC[C@@H]3c4ccc(I)cc4CCC3[C@@H]1CC[C@@H]2O (single isomer, unassigned)", "measured_target": "MCF7", "EC50 (nM)": 0.174}
{"compound": "C[C@]12CC[C@@H]3c4cc(N)c(O)cc4CCC3[C@@H]1CC[C@@H]2O (single isomer, unassigned)", "measured_target": "MCF7", "EC50 (nM)": 0.558}
{"compound": "C[C@]12CC(=O)[C@@H]3c4ccc(O)cc4CCC3[C@@H]1CC[C@@H]2O (single isomer, unassigned)", "measured_target": "MCF7", "EC50 (nM)": 8.97}
{"compound": "C[C@]12CC[C@@H]3c4cc(O)ccc4CCC3[C@@H]1CC[C@@H]2O (single isomer, unassigned)", "measured_target": "MCF7", "EC50 (nM)": 0.033}
{"compound": "C[C@]12CC[C@@H]3c4ccc(O)cc4C[C@H](O)C3[C@@H]1CC[C@@H]2O (single isomer, unassigned)", "measured_target": "MCF7", "EC50 (nM)": 0.0122}

// query Write down the reported EC50 of C[C@]12CC[C@@H]3c4cc(N)ccc4CCC3[C@@H]1CC[C@@H]2O (single isomer, unassigned) , test system: MCF7.
// result 0.127

// query Write down the reported EC50 of C[C@]12CC[C@@H]3c4ccccc4CCC3[C@@H]1CC[C@@H]2O (single isomer, unassigned) , test system: MCF7.
// result 0.316

// query Write down the reported EC50 of C[C@]12CC[C@@H]3c4cc(I)ccc4CCC3[C@@H]1CC[C@@H]2O (single isomer, unassigned) , test system: MCF7.
// result 1.7

// query Write down the reported EC50 of C[C@]12CCc3c(ccc4cc(O)ccc34)[C@@H]1CC[C@@H]2O , test system: MCF7.
// result 0.0125
